ASSAY PROCEDURE: Plasma kinetics in rat following intravenous and oral administration
Assay type: in vivo, Sprague Dawley rats
CONDITION SUMMARY: male, Sprague Dawley, rat, plasma, po, 10 mg/kg, oral 10 mg/kg, male rats, Median; read-out: AUC0-t
QUANTITY KIND: AUC(0-t)
Entry format: amount then unit.

AUC(0-t) reported for this compound N=C(N)NN=CC=Cc1cccn1-c1ccc(Cl)cc1 [Compound 1, acetate] : 1460 ng·h/mL

AUC(0-t) reported for this compound N=C(N)NN=CC=Cc1cccn1-c1ccccc1[N+](=O)[O-] [Compound 2, acetate] : 62.6 ng·h/mL

AUC(0-t) reported for this compound N=C(N)NN=CC=Cc1cccn1-c1ccccc1Br [Compound 3, acetate] : 565 ng·h/mL
